The following compounds are listed with their measured IC50 values.
MEASURED_TARGET: Human KDR (residues 790-1356) (Homo sapiens (Human))
Sequence (P35968 790-1356): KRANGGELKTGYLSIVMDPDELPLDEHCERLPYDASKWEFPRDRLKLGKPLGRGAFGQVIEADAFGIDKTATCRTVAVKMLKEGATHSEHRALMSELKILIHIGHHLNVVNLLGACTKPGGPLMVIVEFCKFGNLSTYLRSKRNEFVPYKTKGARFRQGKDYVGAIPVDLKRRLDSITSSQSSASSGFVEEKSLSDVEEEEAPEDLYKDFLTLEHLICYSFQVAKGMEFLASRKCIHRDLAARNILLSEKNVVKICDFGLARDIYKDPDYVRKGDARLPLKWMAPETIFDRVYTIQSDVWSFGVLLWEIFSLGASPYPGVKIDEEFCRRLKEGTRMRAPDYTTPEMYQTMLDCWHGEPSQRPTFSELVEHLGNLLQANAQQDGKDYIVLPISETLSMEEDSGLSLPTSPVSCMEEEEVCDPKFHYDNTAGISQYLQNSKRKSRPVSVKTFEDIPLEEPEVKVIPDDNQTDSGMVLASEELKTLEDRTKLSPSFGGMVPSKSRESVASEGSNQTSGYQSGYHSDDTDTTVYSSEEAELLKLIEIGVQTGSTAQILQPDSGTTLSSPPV
EXPERIMENTAL_PROTOCOL: Human KDR kinase assay, HTRF KinEase (Example B-2)
Format: biochemical
EXPERIMENTAL_PARAMETERS: protocol of Example B-2
Counter-ions that a name gives are not always drawn.

[[record]]
compound = "Cc1nc2c(Oc3ccc(NC(=O)c4cnc(C)c(-c5ccc(F)cc5)c4O)cc3F)ccnc2cc1-c1cccnc1 [Compound 618, hydrochloride]"
recorded_measurement = "100 to 300 nM"

[[record]]
compound = "Cc1ncc(C(=O)Nc2ccc(Oc3ccnc4cc(-c5cnn(C(F)F)c5)cnc34)cc2)c(O)c1-c1ccc(F)cc1"
recorded_measurement = "< 100 nM"

[[record]]
compound = "COc1cc2nccc(Oc3ccc(NC(=O)c4c(C)n(C)c(C)c(-c5ccc(F)cc5)c4=O)cc3F)c2nc1OC"
recorded_measurement = "100 to 300 nM"

[[record]]
compound = "Cc1cc(F)ccc1-c1c(C)ncc(C(=O)Nc2ccc(Oc3ccnc4cc(C(C)C)cnc34)cc2)c1O"
recorded_measurement = "> 300 nM"

[[record]]
compound = "CNC(=O)c1cnc2c(Oc3ccc(NC(=O)c4cnc(C)c(-c5ccc(F)cc5)c4O)cc3F)ccnc2c1"
recorded_measurement = "100 to 300 nM"

[[record]]
compound = "COc1cc2nccc(Oc3ccc(NC(=O)c4cn(C(C)C)c(C)c(-c5ccc(F)cc5)c4=O)cc3F)c2nc1O"
recorded_measurement = "> 300 nM"

[[record]]
compound = "COc1nc2c(Oc3ccc(NC(=O)c4cnc(C)c(-c5ccc(F)cc5C)c4O)cc3F)ccnc2cc1C"
recorded_measurement = "> 300 nM"

[[record]]
compound = "COCc1nc(C)c(-c2ccc(F)cc2C)c(O)c1C(=O)Nc1ccc(Oc2ccnc3ccc(OC)nc23)cc1"
recorded_measurement = "> 300 nM"


Qu. Form field: IC50 recorded for COc1cc2c(Oc3ccc(NC(=O)c4cnc(C)c(-c5ccc(F)cc5)c4O)cc3F)ccnc2cn1 with Human KDR (residues 790-1356) (Homo sapiens (Human)) (enter value)
Ans. > 300 nM

Qu. Item: CNc1nccc2c(Oc3ccc(NC(=O)c4cnc(C)n(-c5ccc(F)cc5)c4=O)cc3)ccnc12
Ans. > 300 nM

Qu. Same lookup for C=C(C)c1cnc2c(Oc3ccc(NC(=O)c4cnc(C)c(-c5ccc(F)cc5C)c4O)cc3)ccnc2c1 , please.
Ans. 100 to 300 nM

Qu. Same thing, different compound: COc1cc2ncnc(Oc3ccc(NC(=O)c4cn(C(C)C)cc(-c5ccc(F)cc5)c4=O)cc3F)c2nc1OC
Ans. < 100 nM

Qu. Queued: COc1cnc2c(Oc3ccc(NC(=O)c4ccnn(-c5ccc(F)cc5C)c4=O)cc3F)ccnc2c1
Ans. > 300 nM

Qu. // repeat for C=C(C)c1cc2nccc(Oc3ccc(NC(=O)c4cnc(C)c(-c5ccc(F)cc5C)c4O)cc3F)c2nc1OC and report
Ans. > 300 nM

Qu. And what about the compound COc1cc2nccc(Oc3ccc(NC(=O)c4cn(C)cc(-c5ccc(F)cc5C)c4=O)cc3F)c2nc1OC ?
Ans. < 100 nM

Qu. // next record Cc1nc(C)c(-c2ccc(F)cc2)c(O)c1C(=O)Nc1ccc(Oc2ccnc3cc(O)cnc23)c(F)c1
Ans. < 100 nM

Qu. Repeat with CCn1nc(C(=O)Nc2ccc(Oc3ccnc4cc(OC)c(OC)nc34)c(F)c2)c(=O)c(-c2ccc(F)cc2)c1C
Ans. < 100 nM

Qu. Continue with Cc1nc2c(Oc3ccc(NC(=O)c4cnc(C)c(-c5ccc(F)cc5)c4O)cc3)ccnc2cc1-c1cnn(C(F)F)c1 [Compound 617, hydrochloride]
Ans. 100 to 300 nM

Qu. Entry COc1cc2nccc(Oc3ccc(NC(=O)c4cn(C)c(C(=O)O)c(-c5ccc(F)cc5)c4=O)cc3F)c2nc1OC please
Ans. > 300 nM

Qu. Try this compound next: Cc1ccc2nccc(Oc3ccc(NC(=O)c4c(C)nc(C)c(-c5ccc(F)cc5C)c4O)cc3)c2n1
Ans. > 300 nM

Qu. Again, but for COc1cnc2c(Oc3ccc(NC(=O)c4nnc(C)c(-c5ccc(F)cc5)c4OC(C)C)cc3F)ccnc2c1
Ans. < 100 nM

Qu. And what about the compound COc1nc2c(Oc3ccc(NC(=O)c4cnc(C)c(-c5ccc(F)cc5C)c4O)cc3F)ccnc2cc1C(C)C ?
Ans. > 300 nM

Qu. What would you report for CCc1nc2c(Oc3ccc(NC(=O)c4cnc(C)c(-c5ccc(F)cc5)c4O)cc3F)ccnc2cc1OC ?
Ans. < 100 nM

Qu. Please do the same for COc1cc2nccc(Oc3ccc(NC(=O)c4cn(C(C)C)c(C)c(-c5ccc(F)cc5)c4=O)cc3F)c2nc1N as well.
Ans. > 300 nM

Qu. And what about the compound Cc1nc2c(Oc3ccc(NC(=O)c4cn(C(C)C)c(C)c(-c5ccc(F)cc5)c4=O)cc3F)ccnc2cc1-c1cnn(C(F)F)c1 [Compound 614, hydrochloride] ?
Ans. > 300 nM

Qu. Also need COCc1nc(C)c(-c2ccc(F)cc2)c(O)c1C(=O)Nc1ccc(Oc2ccnc3ccc(OC)cc23)c(F)c1 , thanks.
Ans. > 300 nM

Qu. Next: C=C(C)c1cnc2c(Oc3ccc(NC(=O)c4cnc(C)c(-c5ccc(F)cc5C)c4O)cc3F)ccnc2c1
Ans. 100 to 300 nM

Qu. Another: COc1cnc2c(Oc3ccc(NC(=O)c4cn(C)c(C#N)c(-c5ccc(F)cc5)c4=O)cc3F)ccnc2c1
Ans. > 300 nM
